Experiment: inhibitors of Bluetongue virus cytopathic effect, confirmation, arbovirus, BSR cells (AID 1250)
Conditions: BSR cells, Bluetongue virus CPE, ATP luminescence, 72 h; at 20 µM (top of the series)
MEASURED_PROPERTY: CPE inhibition (%)
Please state the figure in %; there is no need to write the unit.

get_value(item= CCCCOc1ccc(C(O)C(CN2CCCCC2)c2ccccc2)cc1 (stereo unspecified) , readout=CPE inhibition) returns 12.5

get_value(item= Cc1ccc(-n2nc(C)c(NC(=O)CCl)c2C)cc1 , readout=CPE inhibition) returns 13.3

get_value(item= CCc1ccc(C(=O)Nc2ccc(S(=O)(=O)Nc3nc(C)cc(C)n3)cc2)o1 , readout=CPE inhibition) returns 24.5

get_value(item= O=C(N/N=C/c1c(O)n(-c2ccccc2Cl)c(=O)c2ccccc12)c1cccnc1 , readout=CPE inhibition) returns 26

get_value(item= COc1ccc(/C=C2/C(=O)N(CC3CCCO3)C(=S)N2C)c(OC)c1 (stereo unspecified) , readout=CPE inhibition) returns 1.63

get_value(item= O=C1CC(N2CCC(Cc3ccccc3)CC2)C(=O)N1CCc1ccccc1 (stereo unspecified) , readout=CPE inhibition) returns 3.89

====

Test: inhibitors of Bluetongue virus cytopathic effect, confirmation, arbovirus, BSR cells (AID 1250)
Settings: BSR cells, Bluetongue virus CPE, ATP luminescence, 72 h; at 20 µM (top of the series)
If the reported CPE inhibition equals or exceeds 8%, assign label 1. If not, assign label 0.

Request: Does CPE inhibition meet or surpass 8% for FC(F)(F)c1cccc(Oc2ccc3c(C(F)(F)F)cc(C(F)(F)F)nc3n2)c1 ?
Response: label 0

Request: Does CPE inhibition meet or surpass 8% for O=C(Nc1ccccc1C(=O)O)c1cccc(NC(=O)c2ccc(Br)o2)c1 ?
Response: label 0

Request: Does CPE inhibition meet or surpass 8% for Nc1c(-c2ccccc2)c(CSc2nc3ccccc3[nH]2)nn1-c1cccc(Cl)c1 ?
Response: label 1

Request: Does CPE inhibition meet or surpass 8% for C=CCn1c(SC(C)C(N)=O)nc2sc(CC)cc2c1=O (stereo unspecified) ?
Response: label 1

Request: Does CPE inhibition meet or surpass 8% for O=C(O)c1cnc(-c2ccccc2)nc1Sc1ccccc1Cl ?
Response: label 1

Request: Does CPE inhibition meet or surpass 8% for Cc1cccc(Sc2nc(-c3ccccc3)ncc2C(=O)O)c1 ?
Response: label 0

Request: Does CPE inhibition meet or surpass 8% for CCOC(=O)c1ccc(N2CCN(c3ccccc3F)CC2)c(NC(=O)Nc2ccccc2)c1 ?
Response: label 1

Request: Does CPE inhibition meet or surpass 8% for C=CCn1c(N)c(C(=O)NCc2cccnc2)sc1=S ?
Response: label 0

Request: Does CPE inhibition meet or surpass 8% for O=C(Nc1ccn(Cc2ccccc2)n1)c1n[nH]c([N+](=O)[O-])c1Cl ?
Response: label 1

Request: Does CPE inhibition meet or surpass 8% for N#Cc1ccccc1NC(=O)c1ccccc1OCC(=O)NCc1ccco1 ?
Response: label 0

====

Provide the recorded CPE inhibition for the entries that follow.
Test: inhibitors of Bluetongue virus cytopathic effect, confirmation, arbovirus, BSR cells (AID 1250)
Conditions: BSR cells, Bluetongue virus CPE, ATP luminescence, 72 h; at 20 µM (top of the series)
Please state the figure in %; there is no need to write the unit.

get_value(item= COc1ccc(CCNCC(O)c2ccccc2)cc1 (configuration not stated) , readout=CPE inhibition) returns 13.7

get_value(item= C=CCc1cccc2cc(C(=O)Nc3ccccc3C(=O)O)c(=O)oc12 , readout=CPE inhibition) returns 17.4

get_value(item= Cc1ccccc1-n1nc(CSc2nc3ccccc3[nH]2)c(-c2ccccc2)c1N , readout=CPE inhibition) returns 14.9

get_value(item= N#CC(C#N)=Cc1cc2ccccc2nc1N1CCCCC1 , readout=CPE inhibition) returns 12.6

get_value(item= CCOc1ccc2nc(NC(=O)C3=NN(c4ccccc4)C(=O)CC3)sc2c1 , readout=CPE inhibition) returns 25

get_value(item= C=CCNC(=O)c1onc(CSc2ccc(C(C)C)cc2)c1C(=O)O , readout=CPE inhibition) returns 1.33

get_value(item= COc1ccccc1NC(=O)C12CC3CC(C1)CC(c1ccc(C)cc1)(C3)C2 , readout=CPE inhibition) returns 18.9

get_value(item= O=C(CCCN1C(=O)/C(=C/c2cccs2)SC1=S)Nc1cccc(C(=O)O)c1 , readout=CPE inhibition) returns 1.7

get_value(item= Cc1ccc(-c2csc(NC(=O)c3cccc(S(=O)(=O)N4CCN(C)CC4)c3)n2)cc1 , readout=CPE inhibition) returns 5.05

get_value(item= O=c1c(Cl)c(N2CCN(c3ccc(F)cc3)CC2)cnn1C12CC3CC(CC(C3)C1)C2 , readout=CPE inhibition) returns -3.76

get_value(item= O=C(NNC(=S)NC1CCCCC1)c1ccc(Cl)s1 , readout=CPE inhibition) returns 28.3

get_value(item= O=C(c1ccco1)N1CCN(c2nc(-c3ccc(F)cc3)cs2)CC1 , readout=CPE inhibition) returns 17.1

get_value(item= CCn1c(COc2cccc3ccccc23)nnc1SCC(=O)OC1CCCCC1 , readout=CPE inhibition) returns 2.2

get_value(item= Cc1ccc(C)c(Cn2nnc3c(=O)[nH]c(C(=O)Nc4ccc(F)cc4)nc32)c1 , readout=CPE inhibition) returns 11.9

get_value(item= N#C/C(=C\c1cc2ccccc2nc1N1CCCCC1)C(N)=O , readout=CPE inhibition) returns 22.5

get_value(item= Cc1cccc(C)c1Nc1nnc(SC/C(O)=C(\C#N)c2nc3ccccc3[nH]2)s1 , readout=CPE inhibition) returns 16.8

get_value(item= O=C(O)c1cc(N/N=C/c2ccc(OCc3ccccc3)cc2)ccc1Cl , readout=CPE inhibition) returns 19.7

get_value(item= OC(CNC1CCCCC1)CNC1CCCCC1 , readout=CPE inhibition) returns 7.57

get_value(item= COC(=O)c1ccccc1NC(=O)c1ccc(COc2ccc(C)c(C)c2)o1 , readout=CPE inhibition) returns 27.6

get_value(item= Cc1cccc(N2CCN(C(=O)C3COc4ccccc4O3)CC2)c1C (configuration not stated) , readout=CPE inhibition) returns 19.7

get_value(item= Cc1nnc2sc(SCc3cccc(Cl)c3)nn2c1=O , readout=CPE inhibition) returns 14.2

get_value(item= CCOC(=O)c1cnc(SCc2nc(N)nc(Nc3ccc(C)cc3)n2)nc1N , readout=CPE inhibition) returns 29.3

====

Assay: inhibitors of Bluetongue virus cytopathic effect, confirmation, arbovirus, BSR cells (AID 1250)
Conditions: BSR cells, Bluetongue virus CPE, ATP luminescence, 72 h; at 20 µM (top of the series)
If the reported CPE inhibition equals or exceeds 10%, assign T. If not, assign F.

Request: Does CPE inhibition meet or surpass 10% for Cc1ccc(C(=O)c2coc3cc([N+](=O)[O-])c(O)c([N+](=O)[O-])c23)cc1 ?
Response: T

Request: Does CPE inhibition meet or surpass 10% for OC(CNCC1(N2CCCCC2)CCCCC1)COc1ccc(Cl)cc1Cl (configuration not stated) ?
Response: T

Request: Does CPE inhibition meet or surpass 10% for CC(=O)Nc1ccc(-c2csc(NC(=O)c3ccc(C)o3)n2)cc1 ?
Response: T

Request: Does CPE inhibition meet or surpass 10% for COc1ccccc1/C=C/C=C1N=C(/C=C/c2ccc(Cl)cc2)OC/1=O ?
Response: T

Request: Does CPE inhibition meet or surpass 10% for COc1ccccc1N1CCN(Cc2ccc(OC)c3ccccc23)CC1 ?
Response: T

Request: Does CPE inhibition meet or surpass 10% for CC(=O)NCC1=C(NC(C)=O)C2CC1C(C)(C)C2C (configuration not stated) ?
Response: F

Request: Does CPE inhibition meet or surpass 10% for CCSc1nnc(NC(=O)c2ccc(Br)s2)s1 ?
Response: T

Request: Does CPE inhibition meet or surpass 10% for O=C(Nc1nc(-c2ccc3c(c2)OCO3)cs1)C1COc2ccccc2O1 (configuration not stated) ?
Response: T

Request: Does CPE inhibition meet or surpass 10% for O=C1CC(c2ccc(Br)cc2)NC(c2ccc(Br)cc2)C1c1ccccc1 (configuration not stated) ?
Response: F

Request: Does CPE inhibition meet or surpass 10% for CS(=O)(=O)c1nsc2nc(=O)c(/C=C3\C=Nc4ccccc43)c(N)n12 ?
Response: T

Request: Does CPE inhibition meet or surpass 10% for CN(c1ccccc1)c1ccc(/C=C(\CCC(=O)O)c2nc3ccccc3s2)cc1[N+](=O)[O-] ?
Response: T

Request: Does CPE inhibition meet or surpass 10% for O=C(CSc1ncn[nH]1)Nc1nc(-c2ccccc2)ns1 ?
Response: F

Request: Does CPE inhibition meet or surpass 10% for O=c1oc(-c2ccccc2NS(=O)(=O)c2ccc3ccccc3c2)nc2ccccc12 ?
Response: T

Request: Does CPE inhibition meet or surpass 10% for Cc1nnc(SCC(=O)N2CCc3ccccc32)s1 ?
Response: F

Request: Does CPE inhibition meet or surpass 10% for CCOC(=O)c1c(-c2ccc(C)cc2)csc1NC(=O)C1CC=CCC1C(=O)O (configuration not stated) ?
Response: T

Request: Does CPE inhibition meet or surpass 10% for Cc1cccc2c1-c1sc(C(=O)Nc3nccs3)cc1CO2 ?
Response: T

Request: Does CPE inhibition meet or surpass 10% for O=C(NCCN1C(=O)S/C(=C/c2cccnc2)C1=O)C1CC(=O)N(Cc2ccccc2)C1 (configuration not stated) ?
Response: F

Request: Does CPE inhibition meet or surpass 10% for CSc1nsc2nc(=O)c(/C=C3\C=Nc4ccccc43)c(N)n12 ?
Response: T

Request: Does CPE inhibition meet or surpass 10% for Cc1ccc(C)c(N2CCN(C(=O)Cc3ccc(-n4c(=O)[nH]c5ccsc5c4=O)cc3)CC2)c1 ?
Response: T

Request: Does CPE inhibition meet or surpass 10% for O=C(c1ccc2ccccc2n1)N1CCN(c2ccccc2Cl)CC1 ?
Response: F

Request: Does CPE inhibition meet or surpass 10% for COc1ccc(/C=C/c2nc(-c3ccccc3O)n[nH]2)cc1OC ?
Response: T

Request: Does CPE inhibition meet or surpass 10% for CC(C)c1cc(C(F)(F)F)n2nc(C(=O)Nc3ccc4c(c3)OCO4)cc2n1 ?
Response: F
